Source of measurements: ChEMBL document CHEMBL3352173

Here the recorded logD is given for each entry.
test: Octanol-phosphate buffer distribution coefficient, log D of the compound at pH 7.4 by shake flask method; format: physicochemical
reportedProperty: logD

> print(dat)
                                   compound  readoutnumber
1  CO[C@H]1CO[C@@]2(CN(c3ncc(C(=O)O)s3)CC[C@H]2NC(=O)c2[nH]c(C)c(Cl)c2Cl)OC1 (relative stereo)           0.15
2  CO[C@H]1CN(c2nc(-c3cnccn3)c(C(=O)O)s2)CC[C@H]1NC(=O)c1[nH]c(C)c(Cl)c1Cl            1.2
3  C#CCO[C@H]1CN(c2ncc(C(=O)O)s2)CC[C@H]1NC(=O)c1[nH]c(C)c(Cl)c1Cl           0.44
4  CO[C@H]1CN(c2nc(-c3cncnc3)c(C(=O)O)s2)CC[C@H]1NC(=O)c1[nH]c(C)c(Cl)c1Cl           0.35
